Measured values drawn from the supplement of paper PMC11246515 for this set.

- Assay details: total protein half-life in vivo (active degradation + dilution); higher = more stable protein
- Recorded conditions: wild type E. coli NCM3722; growth: P-lim chemostat; doubling time 12 h
Quantity name: total protein half-life in vivo

Query sequence: MFEYLPELMKGLHTSLTLTVASLIVALILALIFTIILTLKTPVLVWLVRGYITLFTGTPLLVQIFLIYYGPGQFPTLQEYPALWHLLSEPWLCALIALSLNSAAYTTQLFYGAIRAIPEGQWQSCSALGMSKKDTLAILLPYAFKRSLSSYSNEVVLVFKSTSLAYTITLMEVMGYSQLLYGRTYDVMVFGAAGIIYLVVNGLLTLMMRLIERKALAFERRN [P0AE30]
Data value: 11 h
//
Query sequence: MFSALRHRTAALALGVCFILPVHASSPKPGDFANTQARHIATFFPGRMTGTPAEMLSADYIRQQFQQMGYRSDIRTFNSRYIYTARDNRKSWHNVTGSTVIAAHEGKAPQQIIIMAHLDTYAPLSDADADANLGGLTLQGMDDNAAGLGVMLELAERLKNTPTEYGIRFVATSGEEEGKLGAENLLKRMSDTEKKNTLLVINLDNLIVGDKLYFNSGVKTPEAVRKLTRDRALAIARSHGIAATTNPGLNKNYPKGTGCCNDAEIFDKAGIAVLSVEATNWNLGNKDGYQQRAKTPAFPAGNSWHDVRLDNHQHIDKALPGRIERRCRDVMRIMLPLVKELAKAS
Data value: 7.1 h
//
Query sequence: MIALIQRVTRASVTVEGEVTGEIGAGLLVLLGVEKDDDEQKANRLCERVLGYRIFSDAEGKMNLNVQQAGGSVLVVSQFTLAADTERGMRPSFSKGASPDRAEALYDYFVERCRQQEMNTQTGRFAADMQVSLVNDGPVTFWLQV [P0A6M4]
Data value: 11 h
